Target: CDK2/CycE (Homo sapiens)
Construct: GST
Assay: CDK2/CycE kinase assay (HTRF)
Details: 10 μM ATP
Entries are grouped by IC50 into these classes: low end (below 3 nM), middle (3 nM to below 7 nM), high end (7 nM or more)

CSc1nc(Nc2ccc(Nc3ccccn3)cc2)ncc1Br [Example 29]: high end

Categorize the following entry: Cc1cc(C)nc(Sc2ccc(Nc3ncc(Br)c(O[C@H](C)[C@@H](C)O)n3)cc2)n1 [Example 41]
high end

Categorize the following entry: C[C@@H](O)[C@@H](C)Nc1nc(Nc2ccc(Oc3cccnc3)cc2)ncc1Br [Example 33]
middle

Categorize the following entry: COc1ccnc(Nc2ccc(Nc3ncc(Br)c(O[C@H](C)[C@@H](C)O)n3)cc2)n1 [Example 22]
middle

Categorize the following entry: C[C@@H](O)[C@@H](C)Oc1nc(Nc2ccc(Nc3nccc(OCCO)n3)cc2)ncc1Br [Example 8]
low end

Categorize the following entry: Cc1cnc(Nc2ccc(Nc3ncc(Br)c(O[C@H](C)[C@@H](C)O)n3)cc2)nc1NCCO [Example 19]
low end

Categorize the following entry: C[C@@H](O)[C@@H](C)Sc1nc(Nc2ccc(Nc3ncc(Cl)c(NCCO)n3)cc2)ncc1Br [Example 44]
high end

Categorize the following entry: C[C@@H](O)[C@@H](C)Nc1nc(Nc2ccc(Oc3ncccn3)cc2)ncc1Br [Example 34]
high end

Categorize the following entry: C[C@@H](O)[C@@H](C)Nc1nc(Nc2ccc(Sc3nncn3C)cc2)ncc1Br [Example 39]
low end

Categorize the following entry: C[C@@H](O)[C@@H](C)Oc1nc(Nc2cccc(Nc3ncccn3)c2)ncc1Br [Example 25]
low end

Categorize the following entry: C[C@@H](O)[C@@H](C)Oc1nc(Nc2ccc(Nc3nccc(NCCN(C)C)n3)cc2)ncc1Br [Example 18]
middle

Categorize the following entry: C[C@@H](O)[C@@H](C)Oc1nc(Nc2ccc(Nc3nccc(N(C)C)n3)cc2)ncc1Br [Example 17]
middle

Categorize the following entry: C[C@@H](O)[C@@H](C)Oc1nc(Nc2cccc(Nc3nccc(OCCO)n3)c2)ncc1Br [Example 27]
low end

Categorize the following entry: C[C@@H](O)[C@@H](C)Oc1nc(Nc2ccc(Nc3ncccn3)cc2)ncc1Br [Example 15]
low end

Categorize the following entry: CC(=O)NCCNc1nc(Nc2cccc(Nc3ncc(Br)c(NCCNC(C)=O)n3)c2)ncc1Br [Example 30]
high end

Categorize the following entry: C[C@@H](O)[C@@H](C)Oc1nc(Nc2ccc(Nc3nccc(N)n3)cc2)ncc1Br [Example 16]
low end

Categorize the following entry: C[C@@H](O)[C@@H](C)Oc1nc(Nc2ccc(Nc3ncc(Cl)c(NCCO)n3)cc2)ncc1Br [Example 21]
low end

Categorize the following entry: C[C@@H](O)[C@@H](C)Oc1nc(Nc2ccc(Nc3ncc(Br)cn3)cc2)ncc1Br [Example 24]
middle

Categorize the following entry: Brc1cnc(Nc2cccc(Nc3ncc(Br)c(NCCc4c[nH]cn4)n3)c2)nc1NCCc1c[nH]cn1 [Example 28]
high end

====

pIC50 data for KDR kinase (Homo sapiens, UniProt P35968) follow.
Answers are plain numbers, as −log10 of the molar value.

C[C@@H](O)[C@@H](C)Oc1nc(Nc2ccc(Nc3nccc(N(C)C)n3)cc2)ncc1Br [Example 17]: 7.21
Cc1cnc(Nc2ccc(Nc3ncc(Br)c(O[C@H](C)[C@@H](C)O)n3)cc2)nc1NCCO [Example 19]: 7.00
Cc1cc(C)nc(Sc2ccc(Nc3ncc(Br)c(O[C@H](C)[C@@H](C)O)n3)cc2)n1 [Example 41]: 5.85

Query compound follows.
Item under review: C[C@@H](O)[C@@H](C)Oc1nc(Nc2ccc(Nc3ncc(Br)cn3)cc2)ncc1Br [Example 24] . Reported pIC50?
6.62

====

Biological target: KDR kinase (Homo sapiens)
Sequence (P35968 807-1356 limits assumed): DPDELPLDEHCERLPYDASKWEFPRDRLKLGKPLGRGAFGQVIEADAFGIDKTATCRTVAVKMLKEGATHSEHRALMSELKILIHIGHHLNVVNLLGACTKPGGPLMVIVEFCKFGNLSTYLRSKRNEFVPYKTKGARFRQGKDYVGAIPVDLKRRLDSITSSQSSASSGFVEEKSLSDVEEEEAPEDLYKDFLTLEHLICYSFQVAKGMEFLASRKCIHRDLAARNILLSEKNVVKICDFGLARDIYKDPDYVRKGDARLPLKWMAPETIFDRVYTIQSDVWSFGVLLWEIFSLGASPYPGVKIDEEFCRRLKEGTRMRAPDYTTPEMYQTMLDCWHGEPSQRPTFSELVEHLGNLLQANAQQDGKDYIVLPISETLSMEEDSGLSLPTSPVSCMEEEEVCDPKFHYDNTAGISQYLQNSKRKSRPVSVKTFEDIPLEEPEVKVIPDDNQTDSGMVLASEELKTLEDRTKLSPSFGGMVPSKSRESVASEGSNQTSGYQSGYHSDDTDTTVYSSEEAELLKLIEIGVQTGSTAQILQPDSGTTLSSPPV
Entries whose IC50 is below 80 nM take 1; entries at or above 80 nM take 0.

C[C@@H](O)[C@@H](C)Nc1nc(Nc2ccc(Sc3nncn3C)cc2)ncc1Br: 1
COc1ccnc(Nc2ccc(Nc3ncc(Br)c(O[C@H](C)[C@@H](C)O)n3)cc2)n1: 0
C[C@@H](O)[C@@H](C)Oc1nc(Nc2cccc(Nc3ncccn3)c2)ncc1Br: 1

Lab note: confirm whether the reported IC50 for this compound is below 80 nM, equality not counting. compound: C[C@@H](O)[C@@H](C)Oc1nc(Nc2ccc(Nc3nccc(NCCN(C)C)n3)cc2)ncc1Br
0

====

Biological target: CDK1/CycB (Homo sapiens, UniProt P06493)
Construct: GST
Sequence (P06493 whole entry): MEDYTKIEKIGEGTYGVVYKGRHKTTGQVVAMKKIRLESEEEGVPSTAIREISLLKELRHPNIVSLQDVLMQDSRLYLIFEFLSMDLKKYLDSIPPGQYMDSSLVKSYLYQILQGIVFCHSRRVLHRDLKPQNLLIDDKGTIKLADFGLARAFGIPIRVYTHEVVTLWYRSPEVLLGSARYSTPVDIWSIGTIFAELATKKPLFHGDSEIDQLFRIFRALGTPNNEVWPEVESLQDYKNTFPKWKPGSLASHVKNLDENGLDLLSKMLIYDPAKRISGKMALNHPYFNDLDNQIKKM
Sequence (P14635 whole entry partner): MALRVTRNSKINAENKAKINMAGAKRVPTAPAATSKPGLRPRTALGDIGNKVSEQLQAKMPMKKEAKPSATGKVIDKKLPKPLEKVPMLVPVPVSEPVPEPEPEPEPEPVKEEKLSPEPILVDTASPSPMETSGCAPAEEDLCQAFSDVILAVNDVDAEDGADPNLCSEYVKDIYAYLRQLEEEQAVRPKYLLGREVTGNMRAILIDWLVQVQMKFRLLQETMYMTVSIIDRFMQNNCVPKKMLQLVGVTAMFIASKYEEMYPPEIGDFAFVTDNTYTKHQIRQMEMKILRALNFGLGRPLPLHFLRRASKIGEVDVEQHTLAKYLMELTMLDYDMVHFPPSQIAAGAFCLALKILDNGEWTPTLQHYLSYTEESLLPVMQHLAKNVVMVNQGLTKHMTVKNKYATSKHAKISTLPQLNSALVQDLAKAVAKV
Experiment: CDK1/CycB kinase assay
Conditions: 0.5 μM ATP, histone IIIS, 33P filter assay
quantity-name: pIC50
Give bare numbers, as −log10 of the molar value.

Example results:
C[C@@H](O)[C@@H](C)Oc1nc(Nc2cccc(Nc3ncccn3)c2)ncc1Br [Example 25]: 7.85
C[C@@H](O)[C@@H](C)Oc1nc(Nc2ccc(Nc3nccc(NCCN(C)C)n3)cc2)ncc1Br [Example 18]: 7.40
Cc1cc(C)nc(Sc2ccc(Nc3ncc(Br)c(O[C@H](C)[C@@H](C)O)n3)cc2)n1 [Example 41]: 7.01
C[C@@H](O)[C@@H](C)Oc1nc(Nc2ccc(Nc3nccc(N)n3)cc2)ncc1Br [Example 16]: 7.64
C[C@@H](O)[C@@H](C)Nc1nc(Nc2ccc(Oc3ncccn3)cc2)ncc1Br [Example 34]: 7.46

# batch: return pIC50 for each of the 3 compounds below
1. C[C@@H](O)[C@@H](C)Oc1nc(Nc2ccc(Nc3ncc(Cl)c(NCCO)n3)cc2)ncc1Br [Example 21]
2. C[C@@H](O)[C@@H](C)Oc1nc(Nc2ccc(Nc3nccc(N(C)C)n3)cc2)ncc1Br [Example 17]
3. C[C@@H](O)[C@@H](C)Nc1nc(Nc2ccc(Sc3nncn3C)cc2)ncc1Br [Example 39]

1: 7.27; 2: 7.15; 3: 7.96

# batch: return pIC50 for each of the 6 compounds below
1. C[C@@H](O)[C@@H](C)Oc1nc(Nc2ccc(Nc3ncccn3)cc2)ncc1Br [Example 15]
2. Cc1cnc(Nc2ccc(Nc3ncc(Br)c(O[C@H](C)[C@@H](C)O)n3)cc2)nc1NCCO [Example 19]
3. C[C@@H](O)[C@@H](C)Oc1nc(Nc2cccc(Nc3nccc(OCCO)n3)c2)ncc1Br [Example 27]
4. C[C@@H](O)[C@@H](C)Oc1nc(Nc2ccc(Nc3nccc(OCCO)n3)cc2)ncc1Br [Example 8]
5. COc1ccnc(Nc2ccc(Nc3ncc(Br)c(O[C@H](C)[C@@H](C)O)n3)cc2)n1 [Example 22]
6. C[C@@H](O)[C@@H](C)Oc1nc(Nc2ccc(Nc3ncc(Br)cn3)cc2)ncc1Br [Example 24]

1: 7.57; 2: 7.29; 3: 7.80; 4: 7.55; 5: 6.89; 6: 6.96

Request: pIC50, test system CDK1/CycB (Homo sapiens, UniProt P06493), entry C[C@@H](O)[C@@H](C)Nc1nc(Nc2ccc(Oc3cccnc3)cc2)ncc1Br [Example 33]
7.11

====

Would you kindly list IC50 for each of these compounds?
Molecular target: human Aurora-C (Homo sapiens, UniProt Q9UQB9)
Construct: GST; made in house; host or cells: transiently transfected HEK293 cells
Sequence (Q9UQB9 whole entry): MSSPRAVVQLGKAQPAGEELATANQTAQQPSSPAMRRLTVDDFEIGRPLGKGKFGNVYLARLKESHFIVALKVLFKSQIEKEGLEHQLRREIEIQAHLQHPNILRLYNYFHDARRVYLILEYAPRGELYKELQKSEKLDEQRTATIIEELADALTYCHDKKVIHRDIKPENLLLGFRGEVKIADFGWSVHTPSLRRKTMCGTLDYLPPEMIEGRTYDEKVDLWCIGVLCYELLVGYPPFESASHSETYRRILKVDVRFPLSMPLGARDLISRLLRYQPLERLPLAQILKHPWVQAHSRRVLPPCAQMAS
Assay: Aurora-C kinase assay (HTRF)
Type: biochemical
Details: GST-human Aurora-C, 10 μM ATP
One number for each entry, in nM.

C[C@@H](O)[C@@H](C)Sc1nc(Nc2ccc(Nc3ncc(Cl)c(NCCO)n3)cc2)ncc1Br [Example 44]: 1000
C[C@@H](O)[C@@H](C)Nc1nc(Nc2ccc(Oc3ncccn3)cc2)ncc1Br [Example 34]: 490
C[C@@H](O)[C@@H](C)Oc1nc(Nc2cccc(Nc3ncccn3)c2)ncc1Br [Example 25]: 340
C[C@@H](O)[C@@H](C)Oc1nc(Nc2ccc(Nc3nccc(OCCO)n3)cc2)ncc1Br [Example 8]: 200

# batch: return IC50 for each of the 2 compounds below
1. COc1ccnc(Nc2ccc(Nc3ncc(Br)c(O[C@H](C)[C@@H](C)O)n3)cc2)n1 [Example 22]
2. C[C@@H](O)[C@@H](C)Oc1nc(Nc2ccc(Nc3nccc(N)n3)cc2)ncc1Br [Example 16]

1. 270
2. 42

Item under review: CC(=O)NCCNc1nc(Nc2cccc(Nc3ncc(Br)c(NCCNC(C)=O)n3)c2)ncc1Br [Example 30] . Reported IC50?
53

====

pIC50 data for UniProt:P35968 follow.
Give bare numbers, as −log10 of the molar value.

C[C@@H](O)[C@@H](C)Oc1nc(Nc2ccc(Nc3nccc(N)n3)cc2)ncc1Br: 7.08

Query compound follows.
Item under review: CC(=O)NCCNc1nc(Nc2cccc(Nc3ncc(Br)c(NCCNC(C)=O)n3)c2)ncc1Br . Reported pIC50?
7.68
